# System: plasma PTH
# ASSAY_INFO: In vivo PTH lowering after IV bolus in isoflurane-anesthetized normal Sprague Dawley rats
# Parameters: species or system rat
# EXPERIMENTAL_PARAMETERS: Table 6; normal rats, AUC 1-4 h
Square brackets hold non-standard residues; d marks the D form. Peptide text beside a SMILES is read from it.
Below is a list of entries, each paired with its recorded 0.5 mg/kg IV bolus % PTH AUC of saline control value.
Number plus unit, in that order.

Before answering, review these 6 worked examples.
1) CC(=O)N[C@H](CS)C(=O)N[C@H](CCCNC(=N)N)C(=O)N[C@H](CCCNC(=N)N)C(=O)N[C@H](CCC(N)=O)C(=O)N[C@H](CCCNC(=N)N)C(=O)N[C@H](C)C(=O)N[C@H](CCCNC(=N)N)C(N)=O [SEQ ID NO: 112, Ac-crrqrar-NH2] (Ac-[dC][dR][dR][dQ][dR][dA][dR]-NH2) : 4%
2) CC(=O)N[C@H](CS)C(=O)N[C@H](C)C(=O)N[C@H](CCCNC(=N)N)C(=O)N[C@H](CCCNC(=N)N)C(=O)N[C@H](CCCNC(=N)N)C(=O)N[C@H](Cc1ccccc1)C(=O)N[C@H](CCCNC(=N)N)C(N)=O [SEQ ID NO: 83, Ac-carrrfr-NH2] (Ac-[dC][dA][dR][dR][dR][dF][dR]-NH2) : 177%
3) CC(=O)N[C@H](CS)C(=O)N[C@H](CCCNC(=N)N)C(=O)N[C@H](CCCNC(=N)N)C(=O)NCC(=O)N[C@H](CCCNC(=N)N)C(=O)N[C@H](C)C(=O)N[C@H](CCCNC(=N)N)C(N)=O [SEQ ID NO: 105, Ac-crrGrar-NH2] (Ac-[dC][dR][dR]G[dR][dA][dR]-NH2) : 69%
4) CC[C@@H](C)[C@@H](NC(=O)[C@@H](CS)NC(C)=O)C(=O)N[C@H](CCCNC(=N)N)C(=O)N[C@H](CCCNC(=N)N)C(=O)N[C@H](CCCNC(=N)N)C(=O)N[C@H](C)C(=O)N[C@H](CCCNC(=N)N)C(N)=O [SEQ ID NO: 96, Ac-cirrrar-NH2] (Ac-[dC][dI][dR][dR][dR][dA][dR]-NH2) : 33%
5) CC(=O)N[C@H](CS)C(=O)N[C@H](CCCNC(=N)N)C(=O)N[C@H](CCCNC(=N)N)C(=O)N[C@H](CCC(=O)O)C(=O)N[C@H](CCCNC(=N)N)C(=O)N[C@H](C)C(=O)N[C@H](CCCNC(=N)N)C(N)=O [SEQ ID NO: 107, Ac-crrerar-NH2] (Ac-[dC][dR][dR][dE][dR][dA][dR]-NH2) : 56%
6) CC(=O)N[C@H](CS)C(=O)N[C@@H](C(=O)N[C@H](CCCNC(=N)N)C(=O)N[C@H](CCCNC(=N)N)C(=O)N[C@H](CCCNC(=N)N)C(=O)N[C@H](C)C(=O)N[C@H](CCCNC(=N)N)C(N)=O)[C@H](C)O [SEQ ID NO: 100, Ac-ctrrrar-NH2] (Ac-[dC][dT][dR][dR][dR][dA][dR]-NH2) : 23%

[ask] So what's the measured 0.5 mg/kg IV bolus % PTH AUC of saline control for this one? CC(=O)N[C@H](CS)C(=O)N[C@H](CCCNC(=N)N)C(=O)N[C@H](CCCNC(=N)N)C(=O)N1CCC[C@@H]1C(=O)N[C@H](CCCNC(=N)N)C(=O)N[C@H](C)C(=O)N[C@H](CCCNC(=N)N)C(N)=O [SEQ ID NO: 106, Ac-crrprar-NH2] (Ac-[dC][dR][dR][dP][dR][dA][dR]-NH2)
[reply] 68%
